# SUBJECT_OF_TEST: hFSH-R (Homo sapiens, UniProt P23945)
# Sequence (P23945 18-695): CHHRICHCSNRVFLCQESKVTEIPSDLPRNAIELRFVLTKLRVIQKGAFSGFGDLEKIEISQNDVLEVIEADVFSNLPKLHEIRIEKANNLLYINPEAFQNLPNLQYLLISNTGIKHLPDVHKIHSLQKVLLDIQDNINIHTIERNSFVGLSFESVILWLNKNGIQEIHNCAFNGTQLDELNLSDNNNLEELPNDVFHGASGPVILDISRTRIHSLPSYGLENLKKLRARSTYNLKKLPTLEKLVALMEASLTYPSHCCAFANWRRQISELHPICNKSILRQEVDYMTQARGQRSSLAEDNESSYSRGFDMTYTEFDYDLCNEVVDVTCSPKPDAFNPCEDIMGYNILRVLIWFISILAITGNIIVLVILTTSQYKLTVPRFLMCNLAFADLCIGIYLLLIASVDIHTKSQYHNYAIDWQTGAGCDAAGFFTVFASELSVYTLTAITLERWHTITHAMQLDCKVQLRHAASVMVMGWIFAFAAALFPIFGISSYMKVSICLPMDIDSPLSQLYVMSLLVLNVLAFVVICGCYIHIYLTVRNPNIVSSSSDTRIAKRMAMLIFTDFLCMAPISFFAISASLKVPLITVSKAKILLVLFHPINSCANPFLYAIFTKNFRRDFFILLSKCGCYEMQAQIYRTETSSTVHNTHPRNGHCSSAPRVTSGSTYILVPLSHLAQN
# PROTOCOL_TEXT: cAMP accumulation (RIA) in CHO-3D2 cells (hFSH-R), hFSH-induced
# TEST_PARAMETERS: inhibition of cAMP accumulation induced by hFSH at EC20, CHO-3D2 cells
pIC50: −log10 of the molar value.
MEASURED_METRIC: pIC50

Some molecules with recorded pIC50:
CC(C)C(O)c1ccccc1-c1ccc(C(=O)N2Cc3ccc(C(=O)NCc4cccnc4)n3Cc3ccccc32)cc1 (centres unmarked) : 6.31
CCC(O)c1ccccc1-c1ccc(C(=O)N2Cc3ccc(C(=O)NCc4cccnc4)n3Cc3ccccc32)cc1 (centres unmarked) : 6.70
O=C(NCc1cccnc1)c1ccc2n1Cc1ccccc1N(C(=O)c1ccc(NCc3ccccc3)nc1)C2 : 5.17
COc1cc(C(=O)N2Cc3ccc(C(=O)NCc4cccnc4)n3Cc3ccccc32)ccc1-c1ccccc1C : 6.70

a. N#Cc1ccccc1-c1ccc(C(=O)N2Cc3ccc(C(=O)NCc4cccnc4)n3Cc3ccccc32)cc1
b. COc1ccccc1-c1ccc(C(=O)N2Cc3ccc(C(=O)NCc4cncc(Br)c4)n3Cc3ccccc32)cc1
c. NC(Cc1ccccc1-c1ccc(C(=O)N2Cc3ccc(C(=O)NCc4cccnc4)n3Cc3ccccc32)cc1)=NO
d. CC(O)c1ccccc1-c1ccc(C(=O)N2Cc3ccc(C(=O)NCc4cccnc4)n3Cc3ccccc32)cc1 (single isomer, unassigned; (-)) [Example 53]
*Q* Hey, quick one: sort these by pIC50, largest value first please. Answer format: list of labels, ordered as asked.
*A* c, d, a, b
(c: 7.15, d: 6.92, a: 6.57, b: 5.27)

* * *

A collection of molecules and their measured melting point

Example cases with answers are listed next.
CC(=O)c1ccccc1-c1ccc(C(=O)N2Cc3ccc(C(=O)NCc4cccnc4)n3Cc3ccccc32)cc1 : 149 to 150 °C
O=C(NCc1cccnc1)c1ccc2n1Cc1ccccc1N(C(=O)c1ccc(N3CCCCC3)cc1)C2 : 196 to 197 °C (dec.)
O=C(NCc1cccnc1)c1ccc2n1Cc1ccccc1N(Cc1ccc(-c3ccccc3)cc1)C2 : 161 to 165 °C (dec.)
NC(Cc1ccccc1-c1ccc(C(=O)N2Cc3ccc(C(=O)NCc4cccnc4)n3Cc3ccccc32)cc1)=NO : 131 to 134 °C
Cc1cc(Cl)ccc1OCC(=O)N1Cc2ccc(C(=O)NCc3cccnc3)n2Cc2ccccc21 : 168 °C
CSc1ccccc1-c1ccc(C(=O)N2Cc3ccc(C(=O)NCc4cccnc4)n3Cc3ccccc32)cc1 (hydrate or solvate) : 172 to 175 °C

Lookup result for COc1ccccc1-c1ccc(C(=O)N2Cc3ccc(C(=O)NCc4cccnc4)n3Cc3ccccc32)cc1 ; measured melting point: 123 to 127 °C

* * *

# SUBJECT_OF_TEST: human FSH receptor (Homo sapiens, UniProt P23945)
# Sequence (P23945 18-695): as above
# PROTOCOL_TEXT: FSH receptor-dependent CRE-luciferase reporter gene assay (CHO FSH-R 6CRE-Luc cells)
# TEST_PARAMETERS: dose-response format in presence of EC50 of purified human FSH; * n=3, ** n=2 averages
MEASURED_METRIC: IC50 (nM)

In the examples that follow, each entry is paired with its recorded IC50.
Cc1ccccc1-c1cccc(C(=O)N2Cc3ccc(C(=O)NCc4cccnc4)n3Cc3ccccc32)c1 : 22700
CC(O)c1ccccc1-c1ccc(C(=O)N2Cc3ccc(C(=O)NCc4cccnc4)n3Cc3ccccc32)cc1 (racemic) [Example 52] : 116
Cc1cc(C(=O)N2Cc3ccc(C(=O)NCc4cccnc4)n3Cc3ccccc32)ccc1-c1cccs1 : 3000
N#Cc1ccccc1-c1ccc(C(=O)N2Cc3ccc(C(=O)NCc4cccnc4)n3Cc3ccccc32)cc1 : 1100
CCN(CC)C(=O)Cc1ccccc1-c1ccc(C(=O)N2Cc3ccc(C(=O)NCc4cccnc4)n3Cc3ccccc32)cc1 : 29100
CS(=O)(=O)c1ccccc1-c1ccc(C(=O)N2Cc3ccc(C(=O)NCc4cccnc4)n3Cc3ccccc32)cc1 : 1100
CN(C)C(=O)Cc1ccccc1-c1ccc(C(=O)N2Cc3ccc(C(=O)NCc4cccnc4)n3Cc3ccccc32)cc1 : 921
CC(=O)c1ccccc1-c1ccc(C(=O)N2Cc3ccc(C(=O)NCc4cccnc4)n3Cc3ccccc32)cc1 : 290
O=C(NCc1cccnc1)c1ccc2n1Cc1ccccc1N(C(=O)c1ccc(-c3ncccn3)cc1)C2 : 2480
Cc1cc(C(=O)N2Cc3ccc(C(=O)NCc4cccnc4)n3Cc3ccccc32)ccc1-c1ccccc1 : 2120

I. COc1ccc(CNc2ccc(C(=O)N3Cc4ccc(C(=O)NCc5cccnc5)n4Cc4ccccc43)cn2)cc1
II. O=C(NCc1cccnc1)c1ccc2n1Cc1ccccc1N(C(=O)c1ccc(-c3ccccc3CN3CCCCC3)cc1)C2
III. NC(Cc1ccccc1-c1ccc(C(=O)N2Cc3ccc(C(=O)NCc4cccnc4)n3Cc3ccccc32)cc1)=NO
IV. NC(=O)Cc1ccccc1-c1ccc(C(=O)N2Cc3ccc(C(=O)NCc4cccnc4)n3Cc3ccccc32)cc1
*Q* Put the items in sequence by IC50, from largest down. Give me the labels in the order the question wants.
*A* I, II, IV, III
